test: in vitro; conditions: rat, gh3-tre-luc cells, AC50 (uM) modified / 1000
# CC50 at 24 h listing for each entry below

molecule	CC50 at 24 h
CC(C)CCCCCOC(=O)CCS [Isooctyl 3-mercaptopropionate]	> 90 µM
CCc1ncnc2cc(OC)c(OC)cc12	> 50 µM
CCCCOC(=O)C(C)CC (stereo not shown) [Butyl 2-methylbutyrate]	> 90 µM
CC(C)(C)c1cc(CCC(=O)OCC(COC(=O)CCc2cc(C(C)(C)C)c(O)c(C(C)(C)C)c2)(COC(=O)CCc2cc(C(C)(C)C)c(O)c(C(C)(C)C)c2)COC(=O)CCc2cc(C(C)(C)C)c(O)c(C(C)(C)C)c2)cc(C(C)(C)C)c1O	> 40 µM

###

# Lookup of reported CC50 at 24 h keyed by entry
test: in vitro; details: rat, gh3-tre-luc cells, AC50 (uM) modified / 1000

compound	CC50 at 24 h
Nc1ncn([C@H]2C[C@H](O)[C@@H](CO)O2)c(=O)n1	> 50 µM
BrCCCCCBr	> 100 µM
Cc1scc2c1N(C(=O)CN1CCN(C)CC1)c1ccccc1NC2=O [Telenzepine]	> 50 µM
CN(N=O)c1ccc([N+](=O)[O-])cc1	> 90 µM
Fc1cccc(Cl)c1CCl	> 90 µM
C=CCCC#N	> 90 µM
CCC(=C(CC)c1ccc(O)cc1)c1ccc(O)cc1 [(Z,E)-Diethylstilbestrol]	12.2 µM
C[C@]12CCC(=O)C[C@@H]1CC[C@@H]1[C@@H]2CC[C@]2(C)C=CC[C@@H]12	> 50 µM
CC1(C(=O)Nc2ccc(O)c(Cl)c2Cl)CCCCC1	76.7 µM
Cc1ncc([N+](=O)[O-])n1CCO	> 50 µM

###

tested on: GH3-TRE-Luc cell line; details: read-out: AC50 (uM) modified / 1000; Tox21_110001=Tox21_111648; viability, 1 nM T3 present, 24 h

given smiles	scale unit	CC50
Oc1cc(Cl)ccc1Oc1ccc(Cl)cc1Cl	µM	50.4

###

system: GH3-TRE-Luc cell line; conditions: read-out: AC50 (uM) modified / 1000; Tox21_110001=Tox21_303647; viability, 1 nM T3 present, 24 h

given smiles	CC50, µM
CCCCCCCCCc1ccc(O)cc1	42.8

###

test: in vitro; details: rat, gh3-tre-luc cells, AC50 (uM) modified / 1000, Tox21_110001=Tox21_113540; viability, 1 nM T3 present, 24 h

molecule	CC50 at 24 h
Oc1ccc2c3c1O[C@H]1[C@@H](O)C=C[C@H]4[C@@H](C2)NCC[C@@]341 [Normorphine]	> 50 µM

###

Listing of entries alongside the reported CC50 at 24 h.
test: in vitro; details: rat, gh3-tre-luc cells, AC50 (uM) modified / 1000
Counter-ions that a name gives are not always drawn.
measure: CC50 at 24 h

molecule	measure	result
Cc1cnc(NC(=O)C2=C(O)c3ccccc3S(=O)(=O)N2C)s1 [Meloxicam]	CC50 at 24 h	> 90 µM
O=C1O[C@H]([C@H](O)CO)C(O)=C1O [Isoascorbic acid]	CC50 at 24 h	> 90 µM
COC(C)(C)CC(C)=O [4-Methoxy-4-methyl-2-pentanone]	CC50 at 24 h	> 90 µM
O=C1c2ccccc2C(=O)C1c1ccccc1 [Phenindione]	CC50 at 24 h	> 20 µM
CCCNCCC [Dipropylamine]	CC50 at 24 h	> 90 µM
Cc1ccc2c(c1)C1CN(C)CCC1N2 (stereo not shown) [Dicarbine]	CC50 at 24 h	> 50 µM
CCOC(=O)CC(C(C)=O)C(C)=O [Ethyl 3-acetyl-4-oxopentanoate]	CC50 at 24 h	> 90 µM
CC1=C(Br)C(=O)C(Br)=C/C1=C(/c1ccccc1S(=O)(=O)O)c1cc(Br)c(O)c(Br)c1C [Bromocresol green sodium salt]	CC50 at 24 h	44.7 µM
CCOC(=O)c1ccc(N(C)C)cc1 [Parbenate]	CC50 at 24 h	> 90 µM
CCCCCC(=O)CC [3-Octanone]	CC50 at 24 h	> 90 µM
O=[N+]([O-])c1ccccc1C(F)(F)F [1-Nitro-2-(trifluoromethyl)benzene]	CC50 at 24 h	> 90 µM
CN1[C@@H]2CC[C@H]1CC(OC1c3ccccc3CCc3ccccc31)C2 (stereo partly shown) [Deptropine citrate]	CC50 at 24 h	12.2 µM
Oc1cc(Cl)c(Cl)c(Cl)c1 [3,4,5-Trichlorophenol]	CC50 at 24 h	29.9 µM
O=C(CN1CCNCC1)NC1CCCCC1 [Esaprazole]	CC50 at 24 h	> 50 µM
C[C@H]1C[C@H]2[C@@H]3CCC4=CC(=O)C=C[C@]4(C)[C@@]3(Cl)[C@@H](O)C[C@]2(C)[C@@]1(O)C(=O)CO [Beclomethasone]	CC50 at 24 h	> 50 µM
CC(C)(Oc1ccc(C2CC2(Cl)Cl)cc1)C(=O)O (stereo not shown) [Ciprofibrate]	CC50 at 24 h	> 90 µM
CC(C)Cc1ccccc1 [Isobutylbenzene]	CC50 at 24 h	> 90 µM
C=C(C)C(=O)OCC [Ethyl methacrylate]	CC50 at 24 h	> 100 µM
C=CCC1([C@@H](C)CCC)C(=O)NC(=O)NC1=O [S-(-)-Secobarbital]	CC50 at 24 h	> 90 µM
CC(NCCC(c1ccccc1)c1ccccc1)c1ccccc1 (stereo not shown) [Fendiline hydrochloride]	CC50 at 24 h	6.49 µM
COc1cc(NCc2ccc3nc(N)nc(N)c3c2C)cc(OC)c1OC [Trimetrexate trihydrochloride]	CC50 at 24 h	8.81 µM
O=C(CO)[C@@H](O)[C@@H](O)[C@H](O)CO [D-Tagatose]	CC50 at 24 h	> 50 µM
COc1cc(C(C)(C)C)c(O)c(C(C)(C)C)c1 [2,6-Di-tert-butyl-4-methoxyphenol]	CC50 at 24 h	48.1 µM
O=C(Nc1ccc(Cl)cc1)Nc1ccc(Cl)c(C(F)(F)F)c1 [Cloflucarban]	CC50 at 24 h	6.22 µM
CC(=O)c1c(C)cc(C(C)(C)C)cc1C [4'-tert-Butyl-2',6'-dimethylacetophenone]	CC50 at 24 h	> 90 µM
C[C@]12CC[C@@H]3c4ccc(OC(=O)c5ccccc5)cc4CC[C@H]3[C@@H]1CC[C@@H]2O [Estradiol benzoate]	CC50 at 24 h	> 50 µM
CCCCN(CCO)CCCC [2-(Dibutylamino)ethanol]	CC50 at 24 h	> 90 µM
O=C1c2ccccc2C(=O)C1c1nc2ccccc2c(Br)c1O [C.I. Disperse Yellow 64]	CC50 at 24 h	> 90 µM
O=[N+]([O-])c1ccc2[nH]ncc2c1 [5-Nitroindazole]	CC50 at 24 h	> 90 µM
CC(CO)Oc1ccccc1 (stereo not shown) [2-Phenoxy-1-propanol]	CC50 at 24 h	> 90 µM
NC(CCC(=O)O)C(=O)O (racemic) [DL-Glutamic acid monohydrate]	CC50 at 24 h	> 80 µM
CC(=O)c1ccc(O)cc1 [4-Hydroxyacetophenone]	CC50 at 24 h	> 90 µM
CCc1ccc(O)cc1 [4-Ethylphenol]	CC50 at 24 h	> 90 µM
Oc1c(Cl)cccc1Cl [2,6-Dichlorophenol]	CC50 at 24 h	> 90 µM
Nc1ccccc1-c1ccccc1 [2-Biphenylamine]	CC50 at 24 h	> 90 µM
CCOC(C)(C)C [Ethyl T-butyl ether]	CC50 at 24 h	> 90 µM
CCN(CC)C(C)C(=O)c1ccccc1 (stereo not shown) [Diethylpropion hydrochloride]	CC50 at 24 h	> 50 µM
CC(C)(C)N(CCO)CCO [2,2'-(tert-Butylimino)diethanol]	CC50 at 24 h	> 90 µM
O=Cc1ccccc1O [Salicylaldehyde]	CC50 at 24 h	> 90 µM
COc1cnc(OC)n2nc(NS(=O)(=O)c3c(OCC(F)F)cccc3C(F)(F)F)nc12 [Penoxsulam]	CC50 at 24 h	> 90 µM

###

assay: in vitro; conditions: rat, gh3-tre-luc cells, AC50 (uM) modified / 1000
Counter-ions that a name gives are not always drawn.

compound	CC50 at 24 h
CCc1oc2ccccc2c1C(=O)c1cc(Br)c(O)c(Br)c1	39.4 µM
CC[C@H]1OC(=O)C[C@@H](O)[C@H](C)[C@@H](O[C@@H]2O[C@H](C)C[C@H](N(C)C)[C@H]2O)[C@@H](CC=O)C[C@@H](C)C(=O)/C=C/[C@]2(C)O[C@H]2[C@@H]1C	22.9 µM
[O-][n+]1cccc(CO)c1 [Mepiroxol]	> 50 µM
COc1cc(C[C@@H](C)N)c(OC)cc1C	41.9 µM
CCCCC(C#N)(Cn1cncn1)c1ccc(Cl)cc1 (stereo not drawn)	> 90 µM
O=C(OCCN1CCCCC1)C(O)(c1ccccc1)c1ccccc1 [Piperilate hydrochloride]	> 50 µM
COC(N)=O [Methyl carbamate]	> 90 µM
CCCCc1cc2ccccc2c(OCCN(C)C)n1 [Dimethisoquin hydrochloride]	7.4 µM
Cc1ccc(O)c(C(C)(C)C)c1	89.6 µM
CC1CCCO1 (stereo not drawn) [2-Methyltetrahydrofuran]	> 90 µM
CCOC(=O)c1ncn2c1CN(C)C(=O)c1cc(F)ccc1-2	> 50 µM
Cc1cc(C)c(NC(=O)CN(CC(=O)O)CC(=O)O)c(C)c1Br	> 50 µM
COC(=O)c1ccccc1OC [Methyl 2-methoxybenzoate]	> 90 µM
Cc1cc(O)c2c(c1)C(=O)c1cccc(O)c1C2=O	> 50 µM
ClC(Cl)=C(c1ccc(Cl)cc1)c1ccc(Cl)cc1	48.6 µM
C=CC[C@]1(O)CC[C@H]2[C@@H]3CCC4=CC(=O)CCC4=C3C=C[C@@]21C	> 50 µM
Nc1nnnn1-c1ccccc1	> 50 µM
CN1CCN(C2=Nc3ccccc3Oc3ccc(Cl)cc32)CC1 [Loxapine succinate]	7.25 µM
CCO[Si](OCC)(OCC)c1ccccc1	> 90 µM
OCCc1ccncc1	> 90 µM
Cc1ccc(O)c(C)c1	> 90 µM
COc1cc(OC)cc(OC)c1	> 50 µM
O=c1[nH]cnc2c1ncn2[C@H]1CC[C@@H](CO)O1	> 100 µM
CCN(CC)CCOC(=O)C(c1ccccc1)C1CCCCC1 (stereo not drawn) [Drofenine hydrochloride]	21.1 µM
O=C(Nc1ccc([N+](=O)[O-])cc1)Nc1ccc([N+](=O)[O-])cc1	> 50 µM
O=C(O)c1cccnc1	> 50 µM
C1C2OC2C2C1C1CC2C2OC12 (stereo not drawn) [Dicyclopentadiene dioxide]	> 90 µM
CC(C)(C)c1ccc(OC(=O)c2ccccc2O)cc1 [4-tert-Butylphenyl salicylate]	> 90 µM
CCN(CC)CCNC(=O)c1ccc(NC(C)=O)cc1 [Acecainide hydrochloride]	> 50 µM
O=S(=O)(O)CCCS(=O)(=O)O [Disodium propane-1,3-disulfonate]	> 50 µM
O=C1OC2(c3ccc(O)cc3Oc3cc(O)ccc32)c2ccccc21	> 50 µM
CC1(C)CO[C@@H](CC(=O)O)CN1	> 50 µM
O=C(O)c1cccc(N(Cc2cccnc2)c2ccc(OC(F)F)c(OC(F)F)c2)c1	75.3 µM
c1ccc2[nH]nnc2c1	> 90 µM
Cc1ccc2nc(N)[nH]c(=O)c2c1Sc1ccncc1 [Nolatrexed dihydrochloride]	> 50 µM
NC(=S)N/N=C/c1cccnc1	> 50 µM
Nc1ccc(S(=O)(=O)Nc2ccccn2)cc1	> 20 µM
NC(=O)c1ncn([C@@H]2O[C@H](CO)[C@@H](O)[C@H]2O)c1N	> 50 µM
CCN(C)C(=O)Oc1cccc([C@H](C)N(C)C)c1 [Rivastigmine tartrate]	> 50 µM
